target-system: rat P2X7 (Rattus norvegicus, UniProt Q64663)
Sequence (Q64663 1-595): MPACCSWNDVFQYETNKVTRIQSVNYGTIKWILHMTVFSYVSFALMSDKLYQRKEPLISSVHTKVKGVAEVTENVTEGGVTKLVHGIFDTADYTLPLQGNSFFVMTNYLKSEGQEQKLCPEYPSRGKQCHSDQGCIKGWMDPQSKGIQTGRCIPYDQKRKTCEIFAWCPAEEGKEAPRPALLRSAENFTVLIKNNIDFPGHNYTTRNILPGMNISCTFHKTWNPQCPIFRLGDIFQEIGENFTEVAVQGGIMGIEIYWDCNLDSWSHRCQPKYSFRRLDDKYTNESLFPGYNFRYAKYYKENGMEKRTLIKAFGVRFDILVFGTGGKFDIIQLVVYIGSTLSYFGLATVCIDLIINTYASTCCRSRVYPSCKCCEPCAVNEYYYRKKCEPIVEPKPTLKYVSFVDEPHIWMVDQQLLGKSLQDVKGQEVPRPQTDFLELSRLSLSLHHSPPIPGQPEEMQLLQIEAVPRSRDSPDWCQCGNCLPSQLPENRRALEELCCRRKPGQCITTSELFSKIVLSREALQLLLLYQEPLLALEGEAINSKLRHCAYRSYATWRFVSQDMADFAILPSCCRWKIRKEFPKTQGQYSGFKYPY
experiment-notes: Radioligand binding, rat P2X7-1321N1 cell membranes, tritiated A-804598
pKi: −log10 of the molar value.
observation-type: pKi

O=C(c1cccc(C(F)(F)F)c1Cl)N1CCn2c(C3CCC3)nnc2[C@H]1c1ccccc1	8.20

P: O=C(c1cccc(C(F)(F)F)c1Cl)N1CCn2c(C(F)F)nnc2[C@H]1c1ccccc1
Q: O=C(c1cccc(C(F)(F)F)c1Cl)N1CCn2c(C3CC3)nnc2[C@@H]1c1ccccc1
[ask] Could you point out whether the larger pKi belongs to P or to Q ? The response must carry the label of the picked entry.
[reply] Q

====

target-system: rat P2X7 (Rattus norvegicus)
experiment-notes: Ca2+ flux (FLIPR) in 1321N1 cells expressing recombinant rat P2X7 channel
condition-summary: read-out: FLIPR (rat) IC50; 250 μM BzATP
observation-type: IC50 (µM)

P: CC(C)(C)c1nnc2n1CCN(C(=O)c1cccc(C(F)(F)F)c1Cl)[C@@H]2c1ccccc1
Q: CCc1nnc2n1CCN(C(=O)c1cccc(C(F)(F)F)c1Cl)[C@@H]2c1ccccc1
[ask] Pick one, P or Q : lowest reported IC50. Answer by quoting the chosen item's label.
[reply] P

====

target-system: P2X7 (Homo sapiens, UniProt Q99572)
experiment-notes: Ca2+ flux (FLIPR) in 1321N1 cells expressing recombinant human P2X7 channel
Assay type: cell-based
Set-up: expressed in transfected cells; host or cells: 1321N1 cells
condition-summary: 250 μM BzATP
observation-type: IC50 (nM)

Cc1nnc2n1CCN(C(=O)c1cccc(C(F)(F)F)c1Cl)[C@@H]2c1ccc(F)cc1 [Example 114]	4080
C[C@H]1Cn2c(nnc2-c2cccc(F)c2F)CN1C(=O)c1cccc(C(F)(F)F)c1Cl [Example 45]	1820
C[C@H]1Cn2c(nnc2-c2ccccc2F)CN1C(=O)c1cccc(Cl)c1Cl [Example 38]	9930
Cc1nnc2n1CCN(C(=O)c1cccc(Cl)c1Cl)[C@@H]2c1ccccn1 [Example 112]	134

P: O=C(c1ccc(F)c(C(F)(F)F)c1Cl)N1CCn2c(nnc2C(F)(F)F)C1c1ccccc1 (single isomer, unassigned) [Example 96]
Q: O=C(c1ccc(F)cc1Cl)N1CCn2c(nnc2C(F)(F)F)[C@H]1c1ccccc1 [Example 118]
R: Cc1nnc2n1CCN(C(=O)c1cccc(C(F)(F)F)c1Cl)C2c1ccccn1 (racemic) [Example 85]
S: C[C@H]1Cn2c(nnc2-c2ccco2)CN1C(=O)c1cccc(C(F)(F)F)c1Cl [Example 24]
T: O=C(c1cccc(C(F)(F)F)c1Cl)N1CCn2c(nnc2C(F)(F)F)C1c1ccccc1 (racemic) [Example 75]
[ask] Put the compounds in ascending order of IC50. Would you mind listing the labels in the order requested?
[reply] S, R, T, Q, P
(S: 6.8 nM, R: 30.1 nM, T: 52.9 nM, Q: 921 nM, P: 4890 nM)

P: Cc1c(C(=O)N2CCn3c(nnc3C(F)(F)F)[C@H]2c2ccccc2)cccc1C(F)(F)F [Example 122]
Q: CC(C)(C)c1nnc2n1CCN(C(=O)c1cccc(C(F)(F)F)c1Cl)[C@H]2c1ccccc1 [Example 82]
R: CCc1nnc2n1CCN(C(=O)c1cccc(C(F)(F)F)c1Cl)[C@@H]2c1ccccc1 [Example 86]
S: Cc1nnc2n1CCN(C(=O)c1cccc(Cl)c1Cl)[C@H]2c1ccc(F)cc1 [Example 105]
[ask] List items by IC50 in falling order. List labels; respect the requested ordering.
[reply] Q, S, P, R

a: O=C(c1cccc(C(F)(F)F)c1Cl)N1CCn2c(nnc2C(F)(F)F)[C@H]1c1ccccc1 [Example 97]
b: O=C(c1cccc(C(F)(F)F)c1Cl)N1CCn2c(-c3ccco3)nnc2[C@H]1c1ccccc1 [Example 83]
c: COc1cnc(-c2nnc3n2C[C@H](C)N(C(=O)c2cccc(C(F)(F)F)c2Cl)C3)nc1 [Example 78]
[ask] hey, can you rank those compounds up there by IC50? biggest number first please I would appreciate it if you listed the labels in the requested order.
[reply] b, c, a
(b: 1790 nM, c: 14.3 nM, a: 7.8 nM)

====

target-system: UniProt:Q99572
Sequence (Q99572 1-595): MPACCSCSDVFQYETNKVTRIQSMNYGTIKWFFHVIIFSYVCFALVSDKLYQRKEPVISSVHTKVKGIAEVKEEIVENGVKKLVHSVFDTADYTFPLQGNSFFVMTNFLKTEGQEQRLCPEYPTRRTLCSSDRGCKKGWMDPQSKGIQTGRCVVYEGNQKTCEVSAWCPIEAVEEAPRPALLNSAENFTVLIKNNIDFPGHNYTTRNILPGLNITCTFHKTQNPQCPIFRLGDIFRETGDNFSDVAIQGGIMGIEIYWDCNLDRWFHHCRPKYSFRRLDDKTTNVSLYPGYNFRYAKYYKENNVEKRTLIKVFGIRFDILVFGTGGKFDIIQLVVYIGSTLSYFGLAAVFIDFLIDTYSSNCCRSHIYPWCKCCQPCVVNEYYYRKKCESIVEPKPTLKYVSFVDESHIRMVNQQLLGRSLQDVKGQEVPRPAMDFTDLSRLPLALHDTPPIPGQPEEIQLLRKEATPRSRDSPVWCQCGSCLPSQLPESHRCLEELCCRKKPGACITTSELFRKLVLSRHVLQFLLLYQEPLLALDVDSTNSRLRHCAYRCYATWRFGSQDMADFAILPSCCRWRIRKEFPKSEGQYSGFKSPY
observation-type: Ki (µM)

O=C(c1cccc(C(F)(F)F)c1Cl)N1CCn2c(C3CC3)nnc2[C@@H]1c1ccccc1 [Example 76]	0.01

1: O=C(c1cccc(Cl)c1Cl)N1CCn2c(C(F)F)nnc2[C@H]1c1ccccc1 [Example 110]
2: O=C(c1ccc(Cl)cc1Cl)N1CCn2c(nnc2C(F)(F)F)[C@H]1c1ccccc1 [Example 120]
3: O=C(c1ccc(F)c(C(F)(F)F)c1Cl)N1CCn2c(nnc2C(F)(F)F)C1c1ccccc1 (single isomer, unassigned) [Example 95]
4: O=C(c1cccc(C(F)(F)F)c1Cl)N1CCn2c(C3CCC3)nnc2[C@H]1c1ccccc1 [Example 93]
5: CC1c2nnc(-c3ccccn3)n2CCN1C(=O)c1ccnc(C(F)(F)F)c1Cl (centres unmarked) [Example 16]
[ask] Rank the items in ascending order with respect to Ki. Rank them, then answer with their labels in that order.
[reply] 1, 4, 3, 2, 5

a: O=C(c1cccc(C(F)(F)F)c1Cl)N1CCn2c(C(F)F)nnc2[C@H]1c1ccccc1 [Example 108]
b: CCc1nnc2n1CCN(C(=O)c1cccc(C(F)(F)F)c1Cl)[C@@H]2c1ccccc1 [Example 86]
c: CC(O)c1nnc2n1CCN(C(=O)c1cccc(C(F)(F)F)c1Cl)C2c1ccccc1 (racemic) [Example 80]
d: C[C@H]1Cn2c(nnc2-c2cc(F)c(F)c(F)c2)CN1C(=O)c1cccc(C(F)(F)F)c1Cl [Example 30]
[ask] Arrange these 4 compounds in increasing order of Ki. Sort and list the labels as requested.
[reply] a, b, c, d
(a: 0.0058 µM, b: 0.0126 µM, c: 0.02 µM, d: 0.0501 µM)

A: Cc1nnc2n1CCN(C(=O)c1cccc(C(F)(F)F)c1Cl)[C@H]2c1ccc(F)cc1 [Example 115]
B: CC(C)(C)c1nnc2n1CCN(C(=O)c1cccc(C(F)(F)F)c1Cl)[C@@H]2c1ccccc1 [Example 81]
C: O=C(c1cccc(C(F)(F)F)c1Cl)N1CCn2c(nnc2C(F)(F)F)C1c1ccccc1 (racemic) [Example 75]
[ask] Put these in order: smallest Ki first, largest last. Answer by listing the labels in the order asked for.
[reply] A, C, B
(A: 0.01 µM, C: 0.0288 µM, B: 0.0501 µM)
